Test system: OVCAR-8 ovarian
Assay: NCI tumour cell line growth inhibition, 48 h
Observation Type: TGI

Check out these entries, answers already filled in.
Compound	Measured On	TGI
O=C1/C(=C/c2ccc(Cl)cc2)COc2ccc(O)c(O)c21	OVCAR-8 ovarian	12.8 µM
Cc1cccc2c1C(=O)OC2(C)c1cccc2ccccc12 (stereo not drawn)	OVCAR-8 ovarian	> 100 µM
COc1ccc(CCc2ccccc2CC(=O)O)cc1	OVCAR-8 ovarian	> 100 µM

Tested on OVCAR-8 ovarian: COc1ccc([C@H](NC(=O)c2ccccc2)[C@@H](O)C(=O)O[C@H]2C[C@@]3(O)C(OC(=O)c4ccccc4)C4[C@](C)(C(=O)[C@H](OC(C)=O)C(=C2C)C3(C)C)[C@@H](O)C[C@H]2OC[C@@]42OC(C)=O)cc1 (stereo partly drawn) . Observed TGI: > 10 µM

Tested on OVCAR-8 ovarian: CSC(=S)OC1C(CO[Si](C)(C)C(C)(C)C)OC2OC(C)(C)OC21 (stereo not drawn) . Observed TGI: 95.8 µM

Tested on OVCAR-8 ovarian: Cc1ccc(CCCCCOc2ccc(C3=NCCO3)cc2)s1 . Observed TGI: > 100 µM

Tested on OVCAR-8 ovarian: O=P1(O)c2ccccc2Nc2cc(C(F)(F)F)ccc21 . Observed TGI: > 100 µM

Tested on OVCAR-8 ovarian: O=C1C[C@H]2CC3(CC[C@H]2CN1)OCCO3 . Observed TGI: > 100 µM

Tested on OVCAR-8 ovarian: COc1ccc2c(c1)CC1c3c(cc4c(c3-2)OCO4)CCN1C (stereo not drawn) . Observed TGI: 70.4 µM

Tested on OVCAR-8 ovarian: O=Cc1ccc(-c2cccc([N+](=O)[O-])c2)s1 . Observed TGI: > 100 µM

Tested on OVCAR-8 ovarian: CCOC(=O)C#Cc1c(CC(=O)OCC)nnn1[C@H]1O[C@@H](CO)[C@@H]2OC(C)(C)O[C@@H]21 . Observed TGI: 18.2 µM

Tested on OVCAR-8 ovarian: CCOc1ccccc1NC(=O)C1=C(C)NC(C)=C(C(=O)Nc2ccccc2OCC)C1c1ccc(NC(C)=O)cc1 . Observed TGI: > 100 µM

Tested on OVCAR-8 ovarian: c1ccc2c3c([nH]c2c1)C1(CCCCC1)c1c([nH]c2ccccc12)C31CCCCC1 . Observed TGI: 50.4 µM

Attribution: PubChem BioAssay (NCI)
